The measured values listed here are drawn from paper PMC12155096.

# measured_on: UniProt:P10635
# Sequence (P10635 whole entry): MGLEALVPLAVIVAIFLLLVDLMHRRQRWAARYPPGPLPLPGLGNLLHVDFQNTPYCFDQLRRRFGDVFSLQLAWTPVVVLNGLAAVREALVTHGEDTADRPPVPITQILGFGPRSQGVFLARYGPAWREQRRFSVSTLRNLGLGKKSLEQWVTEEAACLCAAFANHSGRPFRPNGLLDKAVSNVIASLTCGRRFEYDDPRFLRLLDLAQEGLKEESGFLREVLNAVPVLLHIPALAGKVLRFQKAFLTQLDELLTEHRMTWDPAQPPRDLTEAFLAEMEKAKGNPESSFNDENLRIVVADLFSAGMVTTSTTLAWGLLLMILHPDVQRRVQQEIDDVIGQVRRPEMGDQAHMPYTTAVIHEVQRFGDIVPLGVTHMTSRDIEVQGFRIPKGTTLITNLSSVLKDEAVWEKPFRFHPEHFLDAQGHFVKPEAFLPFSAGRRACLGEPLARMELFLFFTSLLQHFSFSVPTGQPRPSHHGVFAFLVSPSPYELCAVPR
# test_method_notes: biochemical
Where a name gives a salt, the structure may show the parent alone.
quantity_measured: log10 of AC50 (log10 of the value in µM)

compound: Oc1ccc(-c2ccc(O)cc2)cc1 [4,4'-Biphenyldiol]
quantity_measured: log10 of AC50
value_observed: 1.79

compound: OC1(c2ccc(Cl)c(C(F)(F)F)c2)CCN(CCCC(c2ccc(F)cc2)c2ccc(F)cc2)CC1 [Penfluridol]
quantity_measured: log10 of AC50
value_observed: 0.77

compound: O=C(c1ccc(O)cc1)c1ccc(O)cc1 [4,4'-Dihydoxybenzophenone]
quantity_measured: log10 of AC50
value_observed: 1.80

compound: Oc1ccc(Sc2ccc(O)cc2)cc1 [4,4'-Thiodiphenol]
quantity_measured: log10 of AC50
value_observed: 1.49

compound: COC(=O)C(C)Oc1ccc(Oc2ncc(C(F)(F)F)cc2Cl)cc1 (centres unmarked) [Haloxyfop-methyl]
quantity_measured: log10 of AC50
value_observed: 1.67

compound: Cc1nc(N)nc(N)c1-c1ccc(Cl)c(Cl)c1 [Methodichlorophen]
quantity_measured: log10 of AC50
value_observed: 0.36

compound: O=S(=O)(c1ccccc1)c1ccc(Cl)cc1 [4-Chlorophenyl phenyl sulfone]
quantity_measured: log10 of AC50
value_observed: 1.82

compound: Cc1ccnc2ccccc12 [Lepidine]
quantity_measured: log10 of AC50
value_observed: 1.79

compound: CCCN(CCc1cccs1)[C@H]1CCc2c(O)cccc2C1 [Rotigotine]
quantity_measured: log10 of AC50
value_observed: -0.40

compound: COC(=O)c1cc(Cl)ccc1[N+](=O)[O-] [Methyl 5-chloro-2-nitrobenzoate]
quantity_measured: log10 of AC50
value_observed: 1.79

compound: Cn1cc(C(=O)[C@@H]2CCc3nc[nH]c3C2)c2ccccc21 [Ramosetron hydrochloride]
quantity_measured: log10 of AC50
value_observed: 1.24
